Listed here are compounds together with their documented cell viability.
- Test system: NOMO1
- Test name: cell viability relative to DMSO control; higher = less cytotoxic
- Conditions: HPLM + 10% dialyzed FBS; 48 h; 0.00234 µM
Report the value in % with no unit label.

Solved entries:
[[record]]
compound = "C1=C/COCc2cc(ccc2OCCN2CCCC2)Nc2nccc(n2)-c2cccc(c2)OCC/1"
assay_result = 84.8

[[record]]
compound = "S=C(NCc1ccc2c(c1)OCO2)N1CCN(c2ncnc3c2oc2ccccc23)CC1"
assay_result = 113

[[record]]
compound = "ClC1=CC=C(C=C1)C(C#N)C2=C(Cl)C=C(C=C2Cl)N3\\N=C/C(=O)NC3=O (stereo not drawn)"
assay_result = 101

[[record]]
compound = "CC(C)(O)CC[C@@H](O)[C@](C)(O)[C@H]1CC[C@@]2(O)C/3=C/C(=O)[C@@H]4C[C@@H](O)[C@@H](O)C[C@]4(C)[C@H]3CC[C@]12C"
assay_result = 98.6

[[record]]
compound = "C[C@]12CC[C@@H]3c4ccc(O)cc4CC[C@H]3[C@@H]1[C@@H](O)[C@@H](O)[C@@H]2O"
assay_result = 121


Q. Param item = c1ccc(CCCN2CCN(CCOC(c3ccccc3)c3ccccc3)CC2)cc1 ; retrieve measured cell viability.
A. 95.1

Q. Note, next up: CNC(=O)c1ccc(N2C(=S)N(c3cnc(C#N)c(C(F)(F)F)c3)C(=O)C23CCC3)cc1F
A. 114

Q. Repeat for the following compound: COCC1(CO)C(=O)C2CCN1CC2 (stereo not drawn)
A. 106

###

- Tested on: NOMO1
- Test name: cell viability relative to DMSO control; higher = less cytotoxic
- Conditions: RPMI 5 mM glucose + 10% dialyzed FBS; 48 h; 1.71 µM
Listing of entries alongside the reported cell viability.
Please respond with the number in % and leave the unit unwritten.

Below: 4 compounds and their reported cell viability.
[[record]]
compound = "C[C@H](NC(=O)c1sccc1OCc1ccc(Cl)cc1)c1ccccc1"
assay_result = 82.6

[[record]]
compound = "CNCCCC12CCC(c3ccccc31)c1ccccc12"
assay_result = 94

[[record]]
compound = "O=C(O)C1(Cc2cccc(Nc3nccs3)n2)CCC(Oc2cccc(Cl)c2F)CC1 (stereo not given)"
assay_result = 72

[[record]]
compound = "CNCC(O)c1ccc(O)cc1 (stereo not given)"
assay_result = 113


Q. Fill in: cell viability of C[C@H]1C[C@@H]2[C@H](CC[C@@]3(C)[C@H]2CC[C@]3(OC(C)=O)C(C)=O)[C@@]\4(C)CCC(=O)\C=C14 is ___
A. 98

###

- System: NOMO1
- Test name: cell viability relative to DMSO control; higher = less cytotoxic
- Conditions: HPLM + 10% dialyzed FBS; 48 h; 0.0632 µM
Value type: cell viability (%)
Give just the numeric value; % need not be written.

Previously resolved entries follow.
[[record]]
compound = "Nc1ncnc2c1ncn2[C@@H]1O[C@@H](CO)[C@H](O)[C@@H]1O"
study_target = "NOMO1"
value_type = "cell viability"
unit_string = "%"
assay_result = 142

[[record]]
compound = "CCc1ccc(CCOc2ccc(CC3SC(=O)NC3=O)cc2)nc1 (stereo unspecified)"
study_target = "NOMO1"
value_type = "cell viability"
unit_string = "%"
assay_result = 130

[[record]]
compound = "FC1=CC=C(C=C1)N2/C=C\\C=C(C(=O)NC3=CC=C(OC4=C5C=C[NH]C5=NC=C4)C(=C3)F)/C2=O"
study_target = "NOMO1"
value_type = "cell viability"
unit_string = "%"
assay_result = 104

[[record]]
compound = "NC\\1=N\\C(=O)N(\\C=C1)[C@@H]2O[C@H](CO)[C@@H](O)[C@@H]2O"
study_target = "NOMO1"
value_type = "cell viability"
unit_string = "%"
assay_result = 33.9

[[record]]
compound = "C1=C/COCc2cc(ccc2OCCN2CCCC2)Nc2nccc(n2)-c2cccc(c2)OCC/1"
study_target = "NOMO1"
value_type = "cell viability"
unit_string = "%"
assay_result = 161

[[record]]
compound = "CN[C@@H]1[C@@H](O)[C@@H](O[C@@H]2[C@@H](O)[C@H](O[C@H]3O[C@H](CN)[C@@H](O)[C@H](O)[C@H]3O)[C@@H](N)C[C@H]2NC(=O)[C@@H](O)CN)OC[C@]1(C)O"
study_target = "NOMO1"
value_type = "cell viability"
unit_string = "%"
assay_result = 148

[[record]]
compound = "CC1=C(C)C(=O)C(C(CCCCCC(=O)O)c2ccccc2)=C(C)C1=O (stereo unspecified)"
study_target = "NOMO1"
value_type = "cell viability"
unit_string = "%"
assay_result = 93.6

[[record]]
compound = "CC(C)(C)OC(=O)N[C@H]1CCCCC/C=C\\[C@@H]2C[C@@]2(C(=O)N[S+](=O)([O-])C2CC2)NC(=O)[C@@H]2C[C@@H](OC(=O)N3Cc4cccc(F)c4C3)CN2C1=O"
study_target = "NOMO1"
value_type = "cell viability"
unit_string = "%"
assay_result = 108


# input for lookup
Q. Consider the compound shown here: O=C(O)Cn1nnc(-c2cc(N3CCC(Oc4cc(F)ccc4Br)CC3)no2)n1 What is its recorded cell viability?
A. 108

These measurements were taken from the supplement of paper PMC11451515.
